B1: ZNF649 (parent)
chain: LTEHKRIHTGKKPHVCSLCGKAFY

Variants of: B1
ASSAY_NAME: protein stability index of a GFP-peptide fusion (GPS, HEK-293T) (PSI 1-6); higher = more stable;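 note: lentivirally expressed fusions sorted by FACS into six bins by GFP to DsRed ratio, PSI derived from sequencing read proportions per bin multiplied by bin number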
DETAILS: c terminus: a fixed tail appended
Label No if protein stability index falls below 3; label Yes in every other case.

The following variants have reported results that may help.
INSERT INTO measurements (mutant, discrete_label) VALUES
  ('S17C', 'No'),
  ('H4G', 'No'),
  ('H4P', 'No'),
  ('H14F', 'No'),
  ('Y24V', 'No'),
  ('G10E', 'Yes'),
  ('K21A', 'No'),
  ('C16E', 'Yes'),
  ('I7T', 'No'),
  ('K5V', 'No');

Does the reported protein stability index for T2M fall at or above the 3 mark?
No

Does the reported protein stability index for A22H fall at or above the 3 mark?
No

Does the reported protein stability index for S17R fall at or above the 3 mark?
No

Does the reported protein stability index for C16M fall at or above the 3 mark?
No
